# studySystem: NL20 human bronchial epithelial cells expressing human Z-AAT (Homo sapiens (Human), UniProt P01009, E366K)
# Sequence (P01009 25-418 E366K limits assumed): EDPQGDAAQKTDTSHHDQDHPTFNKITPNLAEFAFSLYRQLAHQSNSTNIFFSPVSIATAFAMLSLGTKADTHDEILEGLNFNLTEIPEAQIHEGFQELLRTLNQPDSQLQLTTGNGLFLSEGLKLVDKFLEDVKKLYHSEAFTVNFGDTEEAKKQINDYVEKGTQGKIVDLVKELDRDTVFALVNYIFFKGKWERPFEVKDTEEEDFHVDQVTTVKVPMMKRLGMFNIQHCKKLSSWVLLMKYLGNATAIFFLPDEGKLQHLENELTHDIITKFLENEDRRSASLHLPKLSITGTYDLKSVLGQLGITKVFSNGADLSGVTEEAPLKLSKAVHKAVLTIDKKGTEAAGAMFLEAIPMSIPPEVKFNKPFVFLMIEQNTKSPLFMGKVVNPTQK
# testName: AAT Function Assay (MSD Assay NL20-SI Cell Line)
# assayContext: functionally active AAT (AAT-hNE complex, MSD) in supernatant of NL20 cells expressing human Z-AAT; read-out: NL20 Functional EC50
Items are presented alongside their recorded EC50.

{"molecule": "O=C(O)[C@]1(C(F)(F)F)C[C@@H](c2c(C3CCOCC3)n(-c3ccc(F)c(Cl)c3)c3ccc(O)cc32)C1", "EC50": "500 to 2000 nM"}
{"molecule": "Cc1cc(-n2c(C3CCOCC3)c([C@H]3CC[C@H](C(=O)O)CC3)c3cc(O)ccc32)ccc1F", "EC50": "500 to 2000 nM"}
{"molecule": "Cc1cc(-n2c(C(C)C)c(CCC(=O)O)c3cc(O)c(F)cc32)ccc1F", "EC50": "< 500 nM"}
{"molecule": "CC(C)(CC#N)c1c(-c2ccc(C(=O)O)cc2)c2cc(O)ccc2n1-c1ccc(F)cc1", "EC50": "500 to 2000 nM"}
{"molecule": "Cc1cc(-n2c(C(C)C)c([C@H]3C[C@H](C(=O)O)C3)c3c(F)c(O)ccc32)ccc1F", "EC50": "500 to 2000 nM"}
{"molecule": "Cc1cc(-n2c(C3CCOCC3)c(C[C@H]3C[C@H](C(=O)O)C3)c3cc(O)ccc32)ccc1F", "EC50": "> 2000 nM"}
{"molecule": "Cc1cc(-n2c(C(C)C)c([C@H]3C[C@H](c4n[nH]c(=O)o4)C3)c3cc(O)ccc32)ccc1F", "EC50": "> 2000 nM"}
{"molecule": "CC(C)c1c([C@H]2C[C@H](C(=O)O)C2)c2cc(O)ccc2n1-c1ccc(F)c(F)c1", "EC50": "500 to 2000 nM"}
{"molecule": "Cc1cc(-n2c(C(C)C)c([C@H]3C[C@H](CO)C3)c3cc(O)ccc32)ccc1F", "EC50": "> 2000 nM"}
{"molecule": "Cc1cc(-n2c(C(C)C)c(C3CC3(C)C(=O)O)c3cc(O)ccc32)ccc1F (stereo not shown)", "EC50": "500 to 2000 nM"}
{"molecule": "O=C(O)[C@]1(C(F)(F)F)C[C@H](c2c(C3CCOCC3)n(-c3ccc(F)c(Cl)c3)c3ccc(O)cc32)C1", "EC50": "> 2000 nM"}
{"molecule": "Cc1c(C(C)C#N)c2cc(O)ccc2n1-c1ccc(F)cc1 (stereo not shown)", "EC50": "> 2000 nM"}
{"molecule": "Cc1cc(-n2c(C3CCOCC3)c([C@H]3C[C@](C(=O)O)(C(F)F)C3)c3cc(O)ccc32)ccc1F", "EC50": "> 2000 nM"}
{"molecule": "Cc1cc(-n2c(C(C)C)c(-c3ccccc3C(=O)O)c3cc(O)ccc32)ccc1F", "EC50": "> 2000 nM"}
{"molecule": "CC(C)c1c([C@H]2C[C@@H]2C(=O)O)c2cc(O)c(F)cc2n1-c1ccc(F)cc1", "EC50": "500 to 2000 nM"}
{"molecule": "Cc1cc(-n2c(C(C)C)c(C3CCOC(C(=O)O)C3)c3cc(O)ccc32)ccc1F (stereo not shown) [Compound 64]", "EC50": "> 2000 nM"}
{"molecule": "Cc1cc(-n2c(C(C)C)c(-c3cccc(C(=O)O)c3)c3cc(O)ccc32)ccc1F", "EC50": "< 500 nM"}
{"molecule": "CC(C)c1c(CCC(C)(C)C(=O)O)c2cc(O)ccc2n1-c1ccc(F)cc1", "EC50": "500 to 2000 nM"}
{"molecule": "Cc1cc(-n2c(C(C)C)c(-c3cncc(C(=O)O)c3)c3cc(O)ccc32)ccc1F", "EC50": "500 to 2000 nM"}
{"molecule": "Cc1cc(-n2c(C(C)C)c(-c3cc(C(=O)O)[nH]n3)c3cc(O)ccc32)ccc1F", "EC50": "> 2000 nM"}
{"molecule": "CCC(O)c1c(C#N)c2cc(O)ccc2n1-c1ccnc(C)c1 (stereo not shown)", "EC50": "> 2000 nM"}
{"molecule": "Cc1cc(-n2c(C3CCOCC3)c([C@H]3C[C@H](c4noc(=O)[nH]4)C3)c3cc(O)ccc32)ccc1F", "EC50": "500 to 2000 nM"}
